Test system: histamine stimulated gastric acid secretion
Method notes: Rat lumen perfused stomach, histamine stimulated gastric acid secretion (modified Ghosh and Schild procedure)
Type: in vivo
Experimental conditions: intravenous administration, dose not given
Endpoint label: % inhibition at µ/kg (%)

compound="COc1ccc2[nH]c([S+]([O-])Cc3cc(N4CCOCC4)c(F)cn3)nc2c1 (centres unmarked)" unit_annotation=% value=51
compound="COc1ccc2[nH]c([S+]([O-])Cc3nccc(N(C)C)c3F)nc2c1 (centres unmarked)" unit_annotation=% value=26
compound="COc1cc2nc([S+]([O-])Cc3nccc(N4CCOCC4)c3F)[nH]c2cc1OC (centres unmarked)" unit_annotation=% value=33
compound="COc1ccc2[nH]c([S+]([O-])Cc3cc(N(C)C)c(F)cn3)nc2c1 (centres unmarked)" unit_annotation=% value=37
compound="COc1cc2nc([S+]([O-])Cc3nccc(N(C)C)c3F)[nH]c2cc1OC (centres unmarked)" unit_annotation=% value=46
